system: S. mutans; type: biochemical; conditions: strain ATCC 25175; β-naphthylamine liberated after 60 minutes, 37° C.
Peptide text beside a SMILES is read from it. * marks the point of attachment. βNA = c1ccc2cc(N*)ccc2c1
REPORTED_ENDPOINT: Aminopeptidase activity (nmol)
Give bare numbers, in nmol.

Sample answers from the record:
COMPOUND	TEST_RESULT
CC(C)C[C@H](N)C(=O)NCC(=O)O [Leu-Gly, Leucyl-glycine] (H-Leu-Gly-OH)	0
NC(=O)[C@@H](N)CCC(=O)O	0
CSCCC(N)C(=O)Nc1ccc2ccccc2c1 (racemic)	5
Cl.N=C(N)NCCC[C@H](NC(=O)CNC(=O)CNC(=O)OCc1ccccc1)C(=O)Nc1ccc2ccccc2c1	0
CC(C)C[C@H](NC(=O)[C@@H]1CCCN1C(=O)CN)C(=O)Nc1ccc2ccccc2c1 [Gly-Pro-Leu] (H-Gly-Pro-Leu-βNA)	0

Continue with the compound presented below.
[Q] What value of Aminopeptidase activity has been recorded for this entry: C[C@H](N)C(=O)N[C@@H](C)C(=O)N[C@@H](Cc1ccccc1)C(=O)Nc1ccc2ccccc2c1 [Ala-Ala-Phe] (H-Ala-Ala-Phe-βNA)
[A] 0
